System: SK-MEL-5
Procedure Summary: Antiproliferative activity against human SK-MEL-5 cells after 72 to 144 hrs by cyquant DNA dye method
Assay type: functional, cell-based
For each record, write down the corresponding pIC50.
Please note pIC50 is a logarithmic value: minus log10 of concentration in mol/L. Answer with that number alone.

Query block: Entry "CC1(C)CC(=O)c2c(C(F)(F)F)nn(-c3ccc(C(N)=O)c(N[C@H]4CC[C@H](OC(=O)CN)CC4)c3)c2C1.CS(=O)(=O)O" has what pIC50?
Result block: 7.60

Query block: And then "Cc1cn(-c2ccc(C(N)=O)c(N[C@H]3CC[C@H](O)CC3)c2)c2c1C(=O)CC(C)(C)C2" , what is it?
Result block: 8.15

Query block: And then CC1(C)CC(=O)c2c(C(F)(F)F)nn(-c3ccc(C(N)=O)c(N[C@H]4CC[C@H](O)CC4)c3)c2C1 [SNX-2112] , what is it?
Result block: 8.22

Query block: And then C=CCNC1=C2C[C@@H](C)C[C@H](OC)[C@H](O)[C@@H](C)/C=C(\C)[C@H](OC(N)=O)[C@@H](OC)/C=C\C=C(/C)C(=O)NC(=CC1=O)C2=O [TANESPIMYCIN] , what is it?
Result block: 6.87

====

Procedure Summary: AUC (infinity) in Swiss Webster mouse at 25 mg/kg, po
Assay type: ADME, organism-based
Parameters: time infinity, dose 25 mg/kg, route oral
Test Context: plasma
Value Type: AUC(0-inf) (ng·h/mL)
Expressed in ng·h/mL, but write only the number.

Query block: Entry "CC1(C)CC(=O)c2c(C(F)(F)F)nn(-c3ccc(C(N)=O)c(N[C@H]4CC[C@H](OC(=O)CN)CC4)c3)c2C1.CS(=O)(=O)O" has what AUC(0-inf)?
Result block: 11000

====

Procedure Summary: AUC (infinity) in Swiss Webster mouse at 50 mg/kg, po
Format: ADME, organism-based
Design: time infinity, dose 50 mg/kg, route oral
Test Context: plasma
Value Type: AUC(0-inf) (ng·h/mL)
Expressed in ng·h/mL, but write only the number.

Query block: Entry "CC1(C)CC(=O)c2c(C(F)(F)F)nn(-c3ccc(C(N)=O)c(N[C@H]4CC[C@H](OC(=O)CN)CC4)c3)c2C1.CS(=O)(=O)O" has what AUC(0-inf)?
Result block: 25200

====

For each record, write down the corresponding pIC50.
System: PC-3
Procedure Summary: Antiproliferative activity against human PC3 cells after 72 to 144 hrs by cyquant DNA dye method
Type: functional, cell-based
Please note pIC50 is a logarithmic value: minus log10 of concentration in mol/L. Answer with that number alone.

Query block: Entry "CC1(C)CC(=O)c2c(C(F)(F)F)nn(-c3ccc(C(N)=O)c(N[C@H]4CC[C@H](O)CC4)c3)c2C1" has what pIC50?
Result block: 7.77

Query block: And then "CC1(C)CC(=O)c2c(C(F)(F)F)nn(-c3ccc(C(N)=O)c(N[C@H]4CC[C@H](OC(=O)CN)CC4)c3)c2C1.CS(=O)(=O)O" , what is it?
Result block: 6.94

Query block: And then "Cc1cn(-c2ccc(C(N)=O)c(N[C@H]3CC[C@H](O)CC3)c2)c2c1C(=O)CC(C)(C)C2" , what is it?
Result block: 7.85

Query block: And then "C=CCNC1=C2C[C@@H](C)C[C@H](OC)[C@H](O)[C@@H](C)/C=C(\C)[C@H](OC(N)=O)[C@@H](OC)/C=C\C=C(/C)C(=O)NC(=CC1=O)C2=O" , what is it?
Result block: 8.05
